The entries below come with measured irreversible anodic peak (negative potential region) values attached.
protocol-notes: Cyclic voltammetry in 0.1 M TBABF4/DMSO
particulars: Figure 2, vs Ag/Ag+, 100 mV s^−1
The reply should contain only the number, in V.

molecule="O=C1C(Cl)=C(NC(Cc2ccc(O)cc2)C(=O)O)C(=O)c2ccccc21 (stereo not shown) [Compound 4a]" reading_unit=V recorded_value=−0.33
molecule="O=C1C(Cl)=C(NC(Cc2c[nH]c3ccccc23)C(=O)O)C(=O)c2ccccc21 (stereo not shown) [Compound 4c]" reading_unit=V recorded_value=−0.36
molecule="CC(C)C(NC1=CC(=O)c2ccccc2C1=O)C(=O)O (stereo not shown) [Compound 3b]" reading_unit=V recorded_value=−0.2

Which value of irreversible anodic peak (negative potential region) has been reported for CC(C)C(NC1=C(Cl)C(=O)c2ccccc2C1=O)C(=O)O (stereo not shown) [Compound 4b] in the records? −0.36

All figures here come from paper PMC7248809.
